Where do the numbers come from? From patent US9133230B2.

In this section we review reported log10 GI50 values for a set of molecules.
# Test system: human cervical adenocarcinoma HeLa
# method-description: MTS cytotoxicity assay, HeLa
# Assay type: cell-based
# details: 48 h incubation
Log scale reminder: GI50 in µM, then log10 taken.

Field: example entries. Status: answers known.
| molecule | measurement-type | observed-measurement |
| --- | --- | --- |
| C[C@@]1(O)[C@@H](CO)OC(n2cnc3c(NN=Cc4ccccn4)ncnc32)[C@@H]1O (stereo partly shown) | log10 GI50 | 0.88 |
| OC[C@H]1OC(n2cnc3c(NN=Cc4cccnc4)ncnc32)[C@H](O)[C@@H]1O (stereo partly shown) | log10 GI50 | 1.26 |
| OC[C@H]1OC(n2cnc3c(NN=C(c4ccccn4)c4ccccn4)ncnc32)[C@H](O)[C@@H]1O (stereo partly shown) | log10 GI50 | -0.52 |
| C(=NNc1ncnc2[nH]cnc12)c1ccc[nH]1 | log10 GI50 | 1.08 |
| OC[C@H]1OC(n2cnc3c(NN=Cc4ccccc4)ncnc32)[C@H](O)[C@@H]1O (stereo partly shown) | log10 GI50 | 0.48 |
| OC[C@H]1OC(n2cnc3c(NN=Cc4ccccn4)ncnc32)[C@H](O)[C@@H]1O (stereo partly shown) | log10 GI50 | 0.08 |

// log10 GI50 value for OC[C@H]1OC(n2cnc3c(NN=Cc4ccncc4)ncnc32)[C@H](O)[C@@H]1O (stereo partly shown) : 1.75
